Test system: SK-MEL-5
Assay: NCI tumour cell line growth inhibition, 48 h
The source made the active and inactive calls. No stated cut-off is given here; in the data, active = GI50 up to about 1.1 µM and inactive = higher. Peptide text beside a SMILES is read from it. * marks the point of attachment. Cbz = O=C(OCc1ccccc1)*; CH2Cl = ClC*
Outcomes: active, inactive

{"COMPOUND": "CC1=Nn2c(nc3sc4c(c3c2=O)CCCC4)SC1", "QUALITATIVE_LABEL": "inactive"}
{"COMPOUND": "Cc1ccc(S(=O)(=O)Oc2cc(S(=O)(=O)O)cc3cc(S(=O)(=O)O)cc(N)c23)cc1", "QUALITATIVE_LABEL": "inactive"}
{"COMPOUND": "CCOC(=O)NC(Nc1ccc(F)cc1)(C(=O)OCC)C(F)(F)F (stereo unspecified)", "QUALITATIVE_LABEL": "active"}
{"COMPOUND": "CC(C)=CCc1c(O)cc2oc(-c3ccc(O)cc3O)cc(=O)c2c1O", "QUALITATIVE_LABEL": "inactive"}
{"COMPOUND": "O=C(O)c1ccccc1NS(=O)(=O)c1ccc([N+](=O)[O-])cc1", "QUALITATIVE_LABEL": "inactive"}
{"COMPOUND": "N#Cc1ccc(NC(=O)C(CC(=O)OCc2ccccc2)NC(=O)OCc2ccccc2)cc1 (stereo unspecified)", "QUALITATIVE_LABEL": "inactive"}
{"COMPOUND": "Cc1oc2c(c1C)S(=O)(=O)C(C#N)=C(N(C)C)N2", "QUALITATIVE_LABEL": "inactive"}
{"COMPOUND": "COc1ccc(N2C(=O)C3c4[nH]c5ccccc5c4C4CCC(c5ccccc5)CC4C3C2=O)cc1 (stereo unspecified)", "QUALITATIVE_LABEL": "inactive"}
{"COMPOUND": "CC(=O)/C=C/C=C(\\C)CC/C=C(\\C)CC(C)C", "QUALITATIVE_LABEL": "inactive"}
{"COMPOUND": "Cc1cn(C2CC(N=[N+]=[N-])C(COP(=O)(O)OCC3OC(n4cc(F)c(=O)[nH]c4=O)CC3O)O2)c(=O)[nH]c1=O (stereo unspecified)", "QUALITATIVE_LABEL": "inactive"}
{"COMPOUND": "C1=C(CC2=C[P+](c3ccccc3)(c3ccccc3)C=C(c3ccccc3)O2)OC(c2ccccc2)=C[P+]1(c1ccccc1)c1ccccc1", "QUALITATIVE_LABEL": "active"}
{"COMPOUND": "O=C(O)CCCCn1cnc2c(S)ncnc21", "QUALITATIVE_LABEL": "inactive"}
{"COMPOUND": "C=C(C)C1CC(=O)C(C)=C(O)C1 (stereo unspecified)", "QUALITATIVE_LABEL": "inactive"}
{"COMPOUND": "CC(C)CC(NC(=O)OCc1ccccc1)C(=O)NC(Cc1ccccc1)C(=O)CCl (stereo not drawn) (Cbz-Leu-Phe-CH2Cl; configuration not given here)", "QUALITATIVE_LABEL": "inactive"}
{"COMPOUND": "Cc1cc2c(=O)c3ccc(Cl)cc3[nH]c2c(C(=O)O)c1C", "QUALITATIVE_LABEL": "inactive"}
{"COMPOUND": "COC(=O)[C@H](C)NC(=O)[C@H](NS(=O)(=O)c1nc2ccccc2s1)c1ccccc1", "QUALITATIVE_LABEL": "inactive"}
{"COMPOUND": "CC(O)(/C=C/c1ccccc1)P(=O)(O)c1ccccc1 (stereo unspecified)", "QUALITATIVE_LABEL": "inactive"}
{"COMPOUND": "CC1=NN(c2ccccc2)C(=O)C1/N=N/c1ccc([As](=O)(O)O)c(O)c1 (stereo unspecified)", "QUALITATIVE_LABEL": "inactive"}
{"COMPOUND": "COC(=O)C1(Cc2ccccc2)Cc2cc3c(cc2C1O)CCC3 (stereo unspecified)", "QUALITATIVE_LABEL": "inactive"}
{"COMPOUND": "CN(C)C1(C#N)CCC2(CC1)OCCO2", "QUALITATIVE_LABEL": "inactive"}
{"COMPOUND": "O=C(c1ccc(/N=C/c2ccccc2O)cc1)c1ccc(/N=C/c2ccccc2O)cc1", "QUALITATIVE_LABEL": "inactive"}
